Test: NCI Yeast Anticancer Drug Screen. Data for the cln2 rad14 strain (AID 165);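 further: 0% = growth equal to vehicle treated cultures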
Details: S. cerevisiae cln2 rad14 strain, at 50.0 µM, active compounds read high
Experimental: Growth inhibition of yeast strains with defined genetic alterations is measured as a screen for potential anti-cancer activity. Selected strains with alterations in DNA damage repair or cell cycle control were exposed to compounds and growth inhibition was measured relative to vehicle treated controls. The strain used in this assay is cln2 rad14
This is part of a sample that, as a whole, favours compounds with a hit. Of some 79,000 tested, about 15% had one in any assay.
For each record, write down the corresponding growth inhibition.
Numbers only, in %.

| Molecule | growth inhibition, % |
| --- | --- |
| CC1[C@@H]2CC=C3[C@H]4CCC5Cc6nc7c(nc6C[C@@]5(C)C4CC(=O)[C@]32CO[C@]12OC(C)(C)CC2O)CC1CC[C@@H]2C3=C[C@H]4O[C@@]5(O[C@@](C)(CO)C[C@@H]5O)C(C)[C@@]4(O)[C@]3(C)[C@@H](O)CC2[C@]1(C)C7 (stereo not given in full) | 57.2 |
| CSc1nc2c(c(O)c(C)c(=O)n2C2OCC(OC(C)=O)C(OC(C)=O)C2OC(C)=O)c(=O)n1C (stereo not given) | 2.9 |
| COC(=O)C(C(=O)C(=O)Nc1c(Cl)cc([N+](=O)[O-])cc1Cl)c1nc2cc(C)c(C)cc2[nH]c1=O (stereo not given) | 14.3 |
| Nc1ccc(C(=O)Nc2ccc3c(O)cc(S(=O)(=O)O)cc3c2)cc1 | -6.5 |
| COC(=O)CCOc1ccccc1 | 11.9 |
| CCCCOC1NC(=O)NC(=O)C1(F)C(=O)OCC (stereo not given) | 9.4 |
| COC1OC(CO)C(O)C(OC(C)=O)C1NC(=O)N(CCCl)N=O (stereo not given) | 7.4 |
| Cn1c(C(N)=O)cc(=O)n1-c1ccc([N+](=O)[O-])cc1 | 3.8 |
| CCOc1ccccc1/C=C(\C#N)c1cccc(Cl)c1 | 13.8 |
| CCn1c(O)c(C=Nc2ccccc2)s/c1=N/Nc1nc(C)cs1 | -14.1 |

Dear colleague, could you send me growth inhibition for each of the items below? Thanks.
1. C[n+]1nnn(/N=C\c2ccccc2)c1N
2. Cc1ccccc1NC(=O)CC(=O)N1N=C(N(CCC#N)c2ccccc2Cl)CC1c1ccccc1 (stereo not given)
3. CC(=O)Nc1ccc(Br)cc1
4. OCC1OC(n2ncc3c(Nc4ccccc4)ncnc32)C(O)C1O (stereo not given)
5. CN/C=C(/OCc1ccccc1)c1ccc(O)c(O)c1
6. CC(CC(=O)Nc1ccccc1)C(=O)O (stereo not given)
7. Clc1ccc(/C=C/c2ccc3ccccc3n2)cc1

[-0.95, 16.4, -34, -5.7, -6, -26.4, -28.3]

Dear colleague, could you send me growth inhibition for each of the items below? Thanks.
1. C=C(CC)C(=O)c1ccc(OCC(=O)O)c(Cl)c1Cl
2. O=C(O)/C=C/C=C/c1ccccc1

1: 16.1; 2: -2.7

Dear colleague, could you send me growth inhibition for each of the items below? Thanks.
1. ClC1CCC(c2ccccc2)CC1 (stereo not given)
2. CSc1cnc2ccccc2c1Sc1c[nH]c2ccccc2c1=O
3. c1ccc([P+](CC[P+](c2ccccc2)(c2ccccc2)c2ccccc2)(c2ccccc2)c2ccccc2)cc1
4. CN1CC(CN2CCCCCC2)C(O)C(c2ccccc2)C1 (stereo not given)
5. CCCCNCC1COc2cccc(OCC)c2O1 (stereo not given)
6. COc1ccc(COC=O)cc1
7. O=C(c1nc2ccccc2[nH]1)N1CCN(c2ccccc2)CC1
8. CCOc1ccc(N=Nc2c(O)n(-c3ccc(Br)cc3)c(=S)n(-c3ccc(OC)cc3)c2=O)cc1

[3.75, 11.8, -31.8, 7.85, 9.7, 1.55, 5.55, -24.4]

Dear colleague, could you send me growth inhibition for each of the items below? Thanks.
1. CC1CCCN2C(=O)CN(Cc3ccccc3)CC(=O)N12 (stereo not given)
2. CCCC[N+](C)(CCCC)CCCC
3. NNc1nc2ccccc2c(=O)n1NC(=O)C(=O)Nc1cccc(C(F)(F)F)c1
4. Cc1cc(C)c2[nH]c(=O)c(C)c(C)c2c1Br
5. O=C(Nc1ccc(C2=NCCN2)c(O)c1)c1ccc(C(=O)Nc2ccc(C3=NCCN3)c(O)c2)cc1
6. C1CSCC2(COC2)CS1

1: 13.4; 2: -1.15; 3: -38.6; 4: -16.6; 5: 36.2; 6: 5

src = PubChem BioAssay (NCI)
